# system: JAK1 (Homo sapiens)
# Construct: PV4775
# Sequence (P23458 whole entry): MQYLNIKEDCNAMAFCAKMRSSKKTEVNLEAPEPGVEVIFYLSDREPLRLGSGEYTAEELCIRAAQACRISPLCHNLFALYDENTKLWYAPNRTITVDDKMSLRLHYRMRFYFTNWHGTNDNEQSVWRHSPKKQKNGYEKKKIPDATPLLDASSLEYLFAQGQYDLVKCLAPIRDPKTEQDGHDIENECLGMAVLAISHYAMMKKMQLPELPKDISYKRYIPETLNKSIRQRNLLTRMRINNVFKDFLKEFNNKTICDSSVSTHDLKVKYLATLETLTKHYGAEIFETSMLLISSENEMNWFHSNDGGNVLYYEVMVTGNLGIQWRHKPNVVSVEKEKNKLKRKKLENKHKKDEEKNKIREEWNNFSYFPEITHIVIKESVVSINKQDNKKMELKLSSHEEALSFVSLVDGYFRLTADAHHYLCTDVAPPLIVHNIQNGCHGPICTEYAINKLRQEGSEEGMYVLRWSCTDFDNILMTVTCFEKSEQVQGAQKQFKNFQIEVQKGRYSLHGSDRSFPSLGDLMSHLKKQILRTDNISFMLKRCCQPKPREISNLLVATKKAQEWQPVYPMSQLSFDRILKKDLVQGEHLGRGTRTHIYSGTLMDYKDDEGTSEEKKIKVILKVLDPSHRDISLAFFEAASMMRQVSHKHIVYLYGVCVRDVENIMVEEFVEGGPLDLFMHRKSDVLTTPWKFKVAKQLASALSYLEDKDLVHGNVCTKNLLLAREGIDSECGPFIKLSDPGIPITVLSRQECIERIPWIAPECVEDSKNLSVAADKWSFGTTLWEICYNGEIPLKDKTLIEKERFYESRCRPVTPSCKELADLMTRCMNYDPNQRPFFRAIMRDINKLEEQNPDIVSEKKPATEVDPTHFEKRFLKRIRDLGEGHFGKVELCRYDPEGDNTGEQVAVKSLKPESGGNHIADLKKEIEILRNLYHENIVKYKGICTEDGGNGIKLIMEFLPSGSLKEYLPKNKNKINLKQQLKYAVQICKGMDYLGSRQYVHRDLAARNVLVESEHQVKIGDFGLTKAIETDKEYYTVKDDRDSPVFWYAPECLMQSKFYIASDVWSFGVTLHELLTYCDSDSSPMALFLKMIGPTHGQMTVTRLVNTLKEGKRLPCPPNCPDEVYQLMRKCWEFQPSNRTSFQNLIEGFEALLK
# assayName: JAK enzymatic assay (peptide mobility shift), JAK1
# statedConditions: recombinant JAK1 20 nM, ATP 40 μM, 1 μM IRS-1 peptide, 240 minutes
assayMetric: IC50 (nM)

The cases that follow already have their IC50 on record.
Cc1ccc(CCNS(=O)(=O)C[C@H]2CC[C@H](N(C)c3ncnc4[nH]ccc34)CC2)c(C)c1 | 3.01
CN(c1ncnc2[nH]ccc12)[C@H]1CC[C@H](CS(=O)(=O)N[C@@H]2CCC[C@@H]2c2ccc(F)cc2)CC1 | 15.6

[P] COc1ccccc1CCNS(=O)(=O)C[C@H]1CC[C@H](N(C)c2ncnc3[nH]ccc23)CC1
[Q] CN(c1ncnc2[nH]ccc12)[C@H]1CC[C@H](CS(=O)(=O)NC2CC(NC(=O)OC(C)(C)C)C2)CC1 (stereo partly drawn)
[R] Cc1cc(C)nc(CNS(=O)(=O)C[C@H]2CC[C@H](N(C)c3ncnc4[nH]ccc34)CC2)n1
[S] CN(c1ncnc2[nH]ccc12)[C@H]1CC[C@H](CS(=O)(=O)NCCc2cccc(Cl)c2)CC1
Inquiry: Sort low-to-high on IC50, please. Lab note: record answer as labels in requested order.
Reply text: P, S, Q, R

* * *

# system: JAK2 (Homo sapiens)
# Construct: PV4210
# Sequence (O60674 whole entry): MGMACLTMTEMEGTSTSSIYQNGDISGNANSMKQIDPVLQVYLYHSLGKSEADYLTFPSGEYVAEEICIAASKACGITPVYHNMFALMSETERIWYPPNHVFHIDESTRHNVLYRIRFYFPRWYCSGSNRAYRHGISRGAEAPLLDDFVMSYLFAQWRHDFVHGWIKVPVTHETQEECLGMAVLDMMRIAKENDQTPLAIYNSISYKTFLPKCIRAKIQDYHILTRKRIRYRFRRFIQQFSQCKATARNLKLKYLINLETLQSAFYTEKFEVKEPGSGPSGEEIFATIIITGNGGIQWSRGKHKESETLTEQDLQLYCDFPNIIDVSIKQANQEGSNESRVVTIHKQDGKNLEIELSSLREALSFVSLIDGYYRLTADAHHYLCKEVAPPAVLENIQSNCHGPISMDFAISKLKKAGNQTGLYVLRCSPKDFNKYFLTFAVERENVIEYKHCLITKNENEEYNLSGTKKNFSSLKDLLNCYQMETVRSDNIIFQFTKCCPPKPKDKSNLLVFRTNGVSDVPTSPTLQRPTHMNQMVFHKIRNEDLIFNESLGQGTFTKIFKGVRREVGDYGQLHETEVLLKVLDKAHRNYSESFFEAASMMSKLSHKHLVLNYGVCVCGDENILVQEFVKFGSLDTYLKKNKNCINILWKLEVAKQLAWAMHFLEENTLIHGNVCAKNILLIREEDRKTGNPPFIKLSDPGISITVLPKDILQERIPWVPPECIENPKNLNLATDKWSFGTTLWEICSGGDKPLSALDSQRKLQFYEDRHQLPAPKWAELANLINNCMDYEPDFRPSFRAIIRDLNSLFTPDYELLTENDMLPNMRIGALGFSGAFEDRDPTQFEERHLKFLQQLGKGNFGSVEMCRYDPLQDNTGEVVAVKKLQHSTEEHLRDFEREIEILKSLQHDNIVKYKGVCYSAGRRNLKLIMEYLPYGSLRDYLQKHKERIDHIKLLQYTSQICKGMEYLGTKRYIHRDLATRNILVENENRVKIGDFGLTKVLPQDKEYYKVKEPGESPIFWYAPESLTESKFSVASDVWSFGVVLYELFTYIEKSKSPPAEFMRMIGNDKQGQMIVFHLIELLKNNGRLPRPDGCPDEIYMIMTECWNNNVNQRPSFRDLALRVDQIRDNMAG
# assayName: JAK enzymatic assay (peptide mobility shift), JAK2
# statedConditions: recombinant JAK2 2 nM, ATP 4 μM, 1 μM JAKtide peptide, 150 minutes
assayMetric: IC50 (nM)

CN(C)S(=O)(=O)C[C@H]1CC[C@H](N(C)c2ncnc3[nH]ccc23)CC1 | 27.5

[A] CN(c1ncnc2[nH]ccc12)[C@H]1CC[C@H](CS(=O)(=O)NCCc2ccc(Cl)cc2)CC1
[B] CN(c1ncnc2[nH]ccc12)[C@H]1CC[C@H](CS(=O)(=O)NCCc2ccc(O)cc2)CC1
[C] CN(CCO)S(=O)(=O)C[C@H]1CC[C@H](N(C)c2ncnc3[nH]ccc23)CC1
[D] CN(c1ncnc2[nH]ccc12)[C@H]1CC[C@H](CS(=O)(=O)NCCc2ccccc2)CC1
Inquiry: Sort low-to-high on IC50, please. Lab note: record answer as labels in requested order.
Reply text: D, A, B, C
(D: 12 nM, A: 19 nM, B: 28.6 nM, C: 44.2 nM)

* * *

# system: JAK2 (Homo sapiens)
# Construct: purchased Invitrogen Corporation, Madison, Wis; PV4210
# assayName: JAK enzymatic assay (peptide mobility shift), JAK2
# Type: biochemical
# statedConditions: recombinant JAK2 2 nM, ATP 4 μM, 1 μM JAKtide peptide, 150 minutes
pIC50: −log10 of the molar value.
assayMetric: pIC50

The cases that follow already have their pIC50 on record.
CN(c1ncnc2[nH]ccc12)[C@H]1CC[C@H](CS(=O)(=O)NCC(C)(F)c2ccc(F)cc2)CC1 (stereo partly shown) [Example 8] | 7.49
Cc1nn(C)cc1CNS(=O)(=O)C[C@H]1CC[C@H](N(C)c2ncnc3[nH]ccc23)CC1 [Example 52] | 6.97

[1] C[C@H](O)CNS(=O)(=O)C[C@H]1CC[C@H](N(C)c2ncnc3[nH]ccc23)CC1 [Example 49]
[2] CN(c1ncnc2[nH]ccc12)[C@H]1CC[C@H](CS(=O)(=O)NC[C@H]2CCCO2)CC1 [Example 47]
Inquiry: I would appreciate it if you could say which entry, 1 or 2 , has the lower pIC50 value. Provide the label of your selected option as the answer.
Reply text: 2

[P] CN(c1ncnc2[nH]ccc12)[C@H]1CC[C@H](CS(=O)(=O)NCC(F)c2ccc(F)cc2)CC1 (stereo partly shown) [Example 11]
[Q] CN(c1ncnc2[nH]ccc12)[C@H]1CC[C@H](CS(=O)(=O)NCCc2ccccc2F)CC1 [Example 14]
Inquiry: Which has the higher pIC50, P or Q ? Provide the label of your selected option as the answer.
Reply text: Q
(Q: 7.69, P: 7.21)
